Molecular target: human adenosine A2A receptor (Homo sapiens)
Construct: expressed in transfected cells; host or cells: HEK293 cells infected with BacMam
Sequence (P29274 whole entry): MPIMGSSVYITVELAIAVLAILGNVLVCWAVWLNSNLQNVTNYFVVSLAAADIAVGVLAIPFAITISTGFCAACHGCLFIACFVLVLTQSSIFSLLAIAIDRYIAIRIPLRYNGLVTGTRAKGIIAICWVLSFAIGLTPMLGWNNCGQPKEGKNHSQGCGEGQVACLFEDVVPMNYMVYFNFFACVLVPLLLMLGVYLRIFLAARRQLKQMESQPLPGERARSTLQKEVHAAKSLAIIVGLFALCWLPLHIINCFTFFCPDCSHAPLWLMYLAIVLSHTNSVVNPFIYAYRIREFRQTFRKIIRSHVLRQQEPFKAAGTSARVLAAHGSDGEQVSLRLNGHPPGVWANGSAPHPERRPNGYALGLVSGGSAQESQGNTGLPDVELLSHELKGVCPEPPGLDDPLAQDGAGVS
Assay: Inhibition binding assay, human adenosine A2A receptor membranes, [3H]ZM241385
Settings: 1 nM [3H]ZM241385, HEK293-hA2A membranes, 25° C., 1 h; IC50 converted to Ki with Cheng-Prusoff; read-out: A2A pKi (converted)
EXPERIMENTAL_READOUT: Ki (nM)

| COMPOUND | RESULT_UNITS | Ki |
| --- | --- | --- |
| Cc1cc(-c2c(-c3ccccc3)nc(N)n3c(=O)n(Cc4ccc(F)cn4)nc23)cc(O)n1 | nM | 316 |
| Cc1cc(-c2c(-c3ccccc3)nc(N)n3c(=O)n(CC4CCCCO4)nc23)cc(CO)n1 (single isomer, unassigned) [Example 2-91-iso-2] | nM | 1.58 |

P. Cc1cc(-c2c(-c3ccccc3)nc(N)n3c(=O)n(C4Cc5ccc(N)cc5C4)nc23)cc(C)n1 (stereo not shown)
Q. COc1nc(Cn2nc3c(-c4cc(C)nc(C)c4)c(-c4ccccc4)nc(N)n3c2=O)ccc1F
Could you tell me which of P and Q has the lower Ki reading? # reply format: chosen label
P

----------
Biological target: human adenosine A1 receptor (Homo sapiens)
Construct: expressed in transfected cells; host or cells: HEK293 cells infected with BacMam (the same paragraph also labels the preparation CHO-hA1)
Sequence (P30542 1-326): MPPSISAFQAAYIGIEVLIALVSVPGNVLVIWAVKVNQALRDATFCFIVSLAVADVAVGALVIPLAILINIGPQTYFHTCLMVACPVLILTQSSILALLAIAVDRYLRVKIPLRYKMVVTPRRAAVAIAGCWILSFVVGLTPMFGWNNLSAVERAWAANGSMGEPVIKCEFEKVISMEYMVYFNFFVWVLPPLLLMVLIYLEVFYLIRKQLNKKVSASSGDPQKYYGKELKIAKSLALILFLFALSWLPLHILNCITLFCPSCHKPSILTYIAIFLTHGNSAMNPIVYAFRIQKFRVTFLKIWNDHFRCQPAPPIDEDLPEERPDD
Experiment: Inhibition binding assay, human adenosine A1 receptor membranes, [3H]DPCPX
Settings: 1 nM [3H]DPCPX, 25° C., 1 h; IC50 converted to Ki with Cheng-Prusoff; read-out: A1 pKi (converted)
EXPERIMENTAL_READOUT: Ki (nM)

Recorded Ki, per entry:
| MOLECULE | EXPERIMENTAL_RESULT |
| --- | --- |
| COc1ccc(Cn2nc3c(-c4cc(C)nc(C)c4)c(-c4ccccc4)nc(N)n3c2=O)nn1 [Example 1-33] | 1000 |
| Cc1cc(-c2c(-c3ccc(F)cc3)nc(N)n3c(=O)n(CCC(F)(F)F)nc23)cc(C)n1 [Example 2-33] | 631 |
| Cc1cc(-c2c(-c3ccccc3)nc(N)n3c(=O)n(CCOS(C)(=O)=O)nc23)cc(C)n1 [Example 2-9] | 631 |
| Cc1cc(-c2c(-c3ccccc3)nc(N)n3c(=O)n(Cc4ccc(F)cn4)nc23)cc(Cl)n1 [Example 1-76] | 79.4 |
| Cc1cc(-c2c(-c3ccccc3)nc(N)n3c(=O)n(Cc4ccc(F)cc4C)nc23)cc(C)n1 [Example 1-18] | 10 |
| Cc1cc(-c2c(-c3ccccc3)nc(N)n3c(=O)n(C4CCCN(C)C4)nc23)cc(C)n1 (stereo not drawn) [Example 2-70] | 501 |
| [2H]c1c([2H])c([2H])c(-c2nc(N)n3c(=O)n(Cc4ccc(F)cn4)nc3c2-c2cc(C)nc(CO)c2)c([2H])c1[2H] [Example 1-49] | 398 |
| Cc1cc(-c2c(-c3ccccc3)nc(N)n3c(=O)n(C(C)c4cccnc4)nc23)cc(C)n1 (stereo not drawn) [Example 1-27] | 251 |
| Cc1cc(-c2c(-c3ccccc3)nc(N)n3c(=O)n(Cc4ccc(F)c(=O)n4C)nc23)cc(C)n1 [Example 1-10] | 794 |
| Cc1cc(-c2c(-c3ccccc3)nc(N)n3c(=O)n(CC45CC(C4)C5)nc23)cc(CO)n1 [Example 2-63] | 316 |

a. Cc1cc(-c2c(-c3ccccc3)nc(N)n3c(=O)n(CC4CCOCC4)nc23)cc(C)n1 [Example 2-73]
b. Cc1cc(-c2c(-c3ccccc3)nc(N)n3c(=O)n(Cc4ccc(F)cc4)nc23)cc(C)n1 [Example 1-1]
Form field 'greater Ki' accepts a or b ; which applies? Respond with the label that goes with your answer.
a
(a: 1000 nM, b: 31.6 nM)
